Origin of values: ChEMBL document CHEMBL3885861

- Species on record: Rattus norvegicus
- ASSAY_DETAILS: Open TG-GATES - Regimen: Single
- Assay type: toxicity, organism-based, Sprague-Dawley
- Design: regimen Single, gender Male, age 6 weeks
- CONDITION_LABEL: in vivo, po, 30 mg/kg, 6 h, tissue Plasma, route gavage, dose level Middle
METRIC_NAME: DBIL

## Input Need DBIL, item CC1=C(/C=C/C(C)=C/C=C/C(C)=C/CO)C(C)(C)CCC1 [RETINOL]
## Output 0.004 mg/dL

## Input Need DBIL, item "CN(C)CCN(Cc1cccs1)c1ccccn1"
## Output 0 mg/dL

## Input Need DBIL, item CN(C)CCCN1c2ccccc2CCc2ccc(Cl)cc21 [CLOMIPRAMINE]
## Output 0.02 mg/dL

## Input Need DBIL, item CN(C)CCCN1c2ccccc2CCc2ccccc21 [IMIPRAMINE]
## Output 0.01 mg/dL
